Quick list: IC50 per entry.
# TEST_TARGET: UniProt:P56817
# TEST_DETAILS: In Vitro BACE Cell-based Assay (HEK cell assay): Aβ40 in conditioned medium of cells stably expressing Amyloid Precursor Protein, sandwich ELISA
# CONDITION_NOTES: Table III; IC50's in uM ranges; read-out: HEK cell assay

Completed entries (count: 3):
COMPOUND	IC50
CC(C)(C)CCOc1nccc2c1C1(COC(N)=N1)c1cc(-c3cncnc3)ccc1O2 (centres unmarked)	0.1 to 1 µM
CC(C)(F)COc1ccc2c(c1)[C@]1(COC(N)=N1)c1cc(-c3cccnc3)cnc1O2	< 0.1 µM
COC(C)(C)C#Cc1ccc2c(c1)[C@]1(COC(N)=N1)c1cc(-c3cccnc3)cnc1O2 [208b]	< 0.1 µM

Report value: IC50, system: UniProt:P56817, compound: NC1=N[C@]2(CO1)c1cc(Oc3ccccn3)ccc1Oc1ccc(-c3cncnc3)cc12
0.1 to 1 µM

Report value: IC50, system: UniProt:P56817, compound: NC1=N[C@@]2(CO1)c1cc(-c3cccnc3)ccc1Oc1ccc(-c3cncnc3)cc12
< 0.1 µM

Report value: IC50, system: UniProt:P56817, compound: COc1ccc2c(c1)[C@@]1(COC(N)=N1)c1cc(C(=O)N3CCCC3)ccc1O2
1 to 5 µM

Report value: IC50, system: UniProt:P56817, compound: CC1(COc2ccc3c(c2)[C@]2(COC(N)=N2)c2cc(C#CC4CC4)ccc2O3)COC1
< 0.1 µM

Report value: IC50, system: UniProt:P56817, compound: COc1ccc2c(c1)[C@@]1(N=C(N)O[C@H]1C)c1cc(-c3cncnc3)ccc1O2 (single isomer, unassigned) [Example 125b]
0.1 to 1 µM

Report value: IC50, system: UniProt:P56817, compound: C[C@@H]1OC(N)=N[C@]12c1cc(OCC(C)(C)C)ccc1Oc1ccc(-c3cncnc3)cc12 [126a]
1 to 5 µM

Report value: IC50, system: UniProt:P56817, compound: CC(C)(O)C#Cc1ccc2c(c1)C1(COC(N)=N1)c1cc(C#CC(C)(C)O)cnc1O2 (centres unmarked)
0.1 to 1 µM

Report value: IC50, system: UniProt:P56817, compound: Cc1nn(C)c(C)c1-c1ccc2c(c1)[C@@]1(COC(N)=N1)c1cc(OCC(C)(C)C)ccc1O2
1 to 5 µM

Report value: IC50, system: UniProt:P56817, compound: COc1cc2c(cc1F)Oc1ccc(-c3cncnc3)cc1[C@@]21COC(N)=N1 [154b]
0.1 to 1 µM

Report value: IC50, system: UniProt:P56817, compound: COc1ccc2c(c1)[C@@]1(N=C(N)O[C@@H]1C)c1cc(-c3cncnc3)ccc1O2 (single isomer, unassigned) [Example 125d]
0.1 to 1 µM

Report value: IC50, system: UniProt:P56817, compound: CCOC(C)(C)COc1ccc2c(c1)[C@]1(COC(N)=N1)c1cc(-c3cccnc3)ccc1O2
< 0.1 µM

----------
# TEST_TARGET: BACE1 (Homo sapiens, UniProt P56817)
# Sequence (P56817 46-501, species assumed): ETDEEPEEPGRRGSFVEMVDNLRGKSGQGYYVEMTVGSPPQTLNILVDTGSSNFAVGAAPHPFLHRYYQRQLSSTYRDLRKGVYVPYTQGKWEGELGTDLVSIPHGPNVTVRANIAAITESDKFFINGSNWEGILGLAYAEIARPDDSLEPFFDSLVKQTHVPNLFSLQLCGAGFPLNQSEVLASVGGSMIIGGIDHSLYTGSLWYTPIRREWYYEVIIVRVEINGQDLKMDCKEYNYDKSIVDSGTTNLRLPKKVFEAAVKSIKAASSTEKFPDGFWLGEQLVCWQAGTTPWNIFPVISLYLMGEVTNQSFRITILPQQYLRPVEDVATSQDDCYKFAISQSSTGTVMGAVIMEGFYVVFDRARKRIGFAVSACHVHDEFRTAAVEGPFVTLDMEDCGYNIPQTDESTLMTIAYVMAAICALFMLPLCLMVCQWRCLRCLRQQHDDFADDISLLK
# TEST_DETAILS: In Vitro Enzymatic BACE FRET (Fluorescence Resonance Energy Transfer) Assay
# Assay type: biochemical
# CONDITION_NOTES: Table IV, class symbols; read-out: BACE1 FRET assay
Quick list: IC50 per entry.

Give the reported IC50 for this compound. CCCOc1cc2c(cc1F)Oc1ccc(-c3ccc(F)nc3)cc1[C@]21COC(N)=N1 [compound 921]
100 to 1000 nM

Give the reported IC50 for this compound. NC1=N[C@@]2(CO1)c1cc(-c3cccnc3)ccc1Oc1ccc(-c3csc(C4CC4)n3)cc12 [compound 632]
< 100 nM

Give the reported IC50 for this compound. NC1=N[C@]2(CO1)c1ccccc1Oc1ccc(-c3cncc4ccccc34)cc12 [compound 629]
1000 to 5000 nM
